Source: the supplement of paper PMC9112550

Documented shrunken log2 fold change across a set of sequences
tested on: Escherichia coli TOP10; assay: shrunken log2 fold change of peptide-encoding DNA abundance (4.5 h post-induction vs induction); higher = less antimicrobial activity (less host growth inhibition); settings: time post-induction: 4.5 h; library: site-saturation at positions 5, 18, 19, 20
Measure Name: shrunken log2 fold change

>>> numeric_readout("RRIRERPPRLPRPRPRPHTCPRP")
-0.0792
>>> numeric_readout("RRIRSRPPRLPRPRPRPFTLPRP")
-0.163
>>> numeric_readout("RRIRIRPPRLPRPRPRPTHNPRP")
-0.145
>>> numeric_readout("RRIRLRPPRLPRPRPRPATQPRP")
0.00742
>>> numeric_readout("RRIRYRPPRLPRPRPRPMMHPRP")
-0.626
>>> numeric_readout("RRIRRRPPRLPRPRPRPALEPRP")
0.264
>>> numeric_readout("RRIRQRPPRLPRPRPRPKMAPRP")
0.12
>>> numeric_readout("RRIRLRPPRLPRPRPRPNIPPRP")
-0.823
>>> numeric_readout("RRIRVRPPRLPRPRPRPYTPPRP")
-0.645
>>> numeric_readout("RRIRNRPPRLPRPRPRPTGAPRP")
0.256
>>> numeric_readout("RRIRWRPPRLPRPRPRPSNWPRP")
0.135
>>> numeric_readout("RRIRTRPPRLPRPRPRPNLSPRP")
0.00227
>>> numeric_readout("RRIRVRPPRLPRPRPRPYCNPRP")
-0.501
>>> numeric_readout("RRIRSRPPRLPRPRPRPCCTPRP")
-0.0345
>>> numeric_readout("RRIRSRPPRLPRPRPRPQDTPRP")
-0.265

----------
Documented shrunken log2 fold change across a set of sequences
test system: Escherichia coli TOP10; test: shrunken log2 fold change of peptide-encoding DNA abundance (4.5 h post-induction vs induction); higher = less antimicrobial activity (less host growth inhibition); settings: time post-induction: 4.5 h; library: site-saturation at positions 5, 18, 19, 20;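 further: peptides expressed intracellularly from a pBAD plasmid library in pooled LB shake-flask culture, induced with 0.3% L-arabinose, DNA abundance read by NGS, three biological replicates, DESeq2 with apeglm shrinkage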
Measure Name: shrunken log2 fold change

>>> result("RRIRFRPPRLPRPRPRPMHFPRP")
-0.136
>>> result("RRIRRRPPRLPRPRPRPPDRPRP")
0.21
>>> result("RRIRNRPPRLPRPRPRPIEVPRP")
0.0112
>>> result("RRIRRRPPRLPRPRPRPCDDPRP")
-0.0703
>>> result("RRIRRRPPRLPRPRPRPTNMPRP")
-0.0659
>>> result("RRIRERPPRLPRPRPRPEAKPRP")
0.0152
>>> result("RRIRMRPPRLPRPRPRPGNPPRP")
0.639
>>> result("RRIRRRPPRLPRPRPRPNEKPRP")
-0.023
>>> result("RRIRLRPPRLPRPRPRPAFKPRP")
-0.195
>>> result("RRIRVRPPRLPRPRPRPHVLPRP")
-0.067
>>> result("RRIRQRPPRLPRPRPRPQPCPRP")
0.149
>>> result("RRIRERPPRLPRPRPRPGDCPRP")
-0.0777
>>> result("RRIRHRPPRLPRPRPRPDKNPRP")
-0.496
>>> result("RRIRHRPPRLPRPRPRPCAYPRP")
-0.0102
>>> result("RRIRRRPPRLPRPRPRPMVCPRP")
0.0487
>>> result("RRIRARPPRLPRPRPRPQCRPRP")
-0.161
>>> result("RRIRLRPPRLPRPRPRPKSNPRP")
-0.172
>>> result("RRIRCRPPRLPRPRPRPSGGPRP")
-0.0862
>>> result("RRIRKRPPRLPRPRPRPVAQPRP")
0.541
>>> result("RRIRLRPPRLPRPRPRPCWNPRP")
-0.291
>>> result("RRIRWRPPRLPRPRPRPLCTPRP")
0.106
>>> result("RRIRHRPPRLPRPRPRPDRNPRP")
-0.0482
>>> result("RRIRLRPPRLPRPRPRPKTLPRP")
-0.0582
>>> result("RRIRGRPPRLPRPRPRPYFCPRP")
-0.119
>>> result("RRIRHRPPRLPRPRPRPDTWPRP")
-1.13
>>> result("RRIRVRPPRLPRPRPRPTMWPRP")
0.267
>>> result("RRIRQRPPRLPRPRPRPPQMPRP")
-0.089
>>> result("RRIRPRPPRLPRPRPRPRILPRP")
0.0605
>>> result("RRIRYRPPRLPRPRPRPCVEPRP")
-0.0115
>>> result("RRIRVRPPRLPRPRPRPCNWPRP")
-0.327
>>> result("RRIRPRPPRLPRPRPRPNPLPRP")
0.149
>>> result("RRIRCRPPRLPRPRPRPQYAPRP")
-0.231
